Where these numbers come from: patent US20150299188A1

- System: FLAP (5-lipoxygenase activating protein)
- TEST SUMMARY: In vitro binding test: displacement of [3H]-7-chloro-3-(5-((3-fluoropyridin-2-yl)methoxy)-2-methylphenyl)-3,4-dihydroquinazolin-2(1H)-one from Sf9 microsome fractions
- Design: species or system human and mouse
- RECORDED CONDITIONS: Sf9 microsome fractions expressing FLAP; 100% = radioligand binding with 10 μM sodium 3-(3-(tert-butylsulfanyl)-1-(4-chlorobenzyl)-5-isopropyl-1H-indol-2-yl)-2,2-dimethylpropanoate, 0% = DMSO; test compound concentration not given
- Protocol: As an assay buffer, 100 mM Tris-HCl, pH 7.5, 140 mM NaCl, 2 mM EDTA, 0.5 mM dithiothreitol, 5% glycerol, 0.05% Tween20 was used. Sf9 microsome fractions expressing human and mouse FLAPs were dispensed by 50 μL to a 96-well plate at 2 μg/mL. […] The GF/B Unifilter plate was dried at 37° C., Microscint 0 was added and measured by TopCount NXT (PerkinElmer). […]
For each of the molecules below, state its inhibitory rate (%).
Unit % implied. Number only.

Challenge: Could you please provide reported inhibitory rate (%) for `Cc1ccc(OCc2ncccc2F)cc1N1Cc2c(cccc2C(F)(F)F)NC1=O` ? Thanks!
Response given: 106

Challenge: Could you please provide reported inhibitory rate (%) for `CC(C)(C)Cc1ccc(OCc2c(F)cccc2F)cc1N1Cc2ccc(CO)cc2NC1=O` ? Thanks!
Response given: 65

Challenge: Could you please provide reported inhibitory rate (%) for `Cc1ccc(OCc2ncccc2F)cc1N1Cc2c(Cl)cc(C(=O)O)cc2NC1=O` ? Thanks!
Response given: 107

Challenge: Could you please provide reported inhibitory rate (%) for Cc1cc2c(cc1N1Cc3c(cc(OC(F)F)nc3C3CC3)NC1=O)OC(c1ncccc1F)CC2 (centres unmarked) ? Thanks!
Response given: 111

Challenge: Could you please provide reported inhibitory rate (%) for `Cc1ccc(OCc2c(F)cccc2F)cc1-n1c(=O)[nH]c2nc(N3CCOCC3)sc2c1=O` ? Thanks!
Response given: 93

Challenge: Could you please provide reported inhibitory rate (%) for Cc1cc2c(cc1N1Cc3cnc(Cl)cc3NC1=O)OC(c1ncccc1F)CC2 (centres unmarked) ? Thanks!
Response given: 114

Challenge: Could you please provide reported inhibitory rate (%) for `CCc1ccc(OCc2c(F)cccc2F)cc1N1Cc2ccc(CO)cc2NC1=O` ? Thanks!
Response given: 91

Challenge: Could you please provide reported inhibitory rate (%) for `Cc1ccc(OCc2c(F)cccc2F)cc1N1Cc2cc(CO)ccc2NC1=O` ? Thanks!
Response given: 62

###

For each of the compounds below, state its inhibitory rate (%).
- System: FLAP (5-lipoxygenase activating protein)
- TEST SUMMARY: In vitro binding test: displacement of [3H]-7-chloro-3-(5-((3-fluoropyridin-2-yl)methoxy)-2-methylphenyl)-3,4-dihydroquinazolin-2(1H)-one from Sf9 microsome fractions
- Set-up: species or system human and mouse
- RECORDED CONDITIONS: Sf9 microsome fractions expressing FLAP; 100% = radioligand binding with 10 μM sodium 3-(3-(tert-butylsulfanyl)-1-(4-chlorobenzyl)-5-isopropyl-1H-indol-2-yl)-2,2-dimethylpropanoate, 0% = DMSO; test compound concentration not given
Unit % implied. Number only.

Challenge: Could you please provide reported inhibitory rate (%) for `Cc1ccc(OCc2ncccc2F)cc1-n1c(=O)[nH]c2ccc(Cl)cc2c1=O` ? Thanks!
Response given: 94

Challenge: Could you please provide reported inhibitory rate (%) for `CCc1ccc(OCc2c(F)cccc2F)cc1N1Cc2ccc(C(=O)OC)cc2NC1=O` ? Thanks!
Response given: 84

Challenge: Could you please provide reported inhibitory rate (%) for O=C(NCC(F)F)c1cc2c(c(C3CC3)n1)CN(c1cc3c(cc1Cl)CCC(c1ncccc1F)O3)C(=O)N2 (stereo not drawn) ? Thanks!
Response given: 104

Challenge: Could you please provide reported inhibitory rate (%) for Cc1cc2c(cc1N1Cc3c(cc(-n4cc(C(N)=O)cn4)nc3C3CC3)NC1=O)OC(c1ncccc1F)CC2 (stereo not drawn) ? Thanks!
Response given: 104

Challenge: Could you please provide reported inhibitory rate (%) for O=C1CCCN1c1cc2c(c(C3CC3)n1)CN(c1cc3c(cc1Cl)CCC(c1ncccc1F)O3)C(=O)N2 (stereo not drawn) ? Thanks!
Response given: 108

Challenge: Could you please provide reported inhibitory rate (%) for `O=C1Nc2cc(OC(F)F)nc(C3CC3)c2CN1c1cc2c(cc1Cl)CC[C@@H](c1ncccc1F)O2` ? Thanks!
Response given: 96

Challenge: Could you please provide reported inhibitory rate (%) for O=C1Nc2cc(-c3nnco3)nc(C3CC3)c2CN1c1cc2c(cc1Cl)CCC(c1ncccc1F)O2 (stereo not drawn) ? Thanks!
Response given: 104

Challenge: Could you please provide reported inhibitory rate (%) for Cc1cc2c(cc1N1Cc3c(Cl)cnc(-c4c(C)nn(C)c4C)c3NC1=O)OC(c1ncccc1F)CC2 (single isomer, unassigned; (-)) [Example 15] ? Thanks!
Response given: 102

Challenge: Could you please provide reported inhibitory rate (%) for `Cc1ccc(OCc2ncccc2F)cc1N1Cc2ccc(Cl)cc2NC1=O` ? Thanks!
Response given: 113

Challenge: Could you please provide reported inhibitory rate (%) for `O=C1Nc2cc(CO)ccc2CN1c1cc(OCc2c(F)cccc2F)ccc1Cc1ccccn1` ? Thanks!
Response given: 54

Challenge: Could you please provide reported inhibitory rate (%) for O=C1Nc2cc(Cl)nc(C3CC3)c2CN1c1cc2c(cc1Cl)CCC(c1ncccc1F)O2 (stereo not drawn) ? Thanks!
Response given: 104

Challenge: Could you please provide reported inhibitory rate (%) for Cc1cc2c(cc1N1Cc3c(cc(-n4cc(C(F)(F)F)cn4)nc3C3CC3)NC1=O)OC(c1ncccc1F)CC2 (stereo not drawn) ? Thanks!
Response given: 100

Challenge: Could you please provide reported inhibitory rate (%) for O=C1Nc2ccnc(Cl)c2CN1c1cc2c(cc1Cl)CCC(c1ncccc1F)O2 (racemic) ? Thanks!
Response given: 94

Challenge: Could you please provide reported inhibitory rate (%) for `Cc1ccc(OCc2ncccc2F)cc1-n1c(=O)[nH]c2cc(N)ccc2c1=O` ? Thanks!
Response given: 101

Challenge: Could you please provide reported inhibitory rate (%) for Cc1noc(C)c1-c1ncc(Cl)c2c1NC(=O)N(c1cc3c(cc1Cl)CCC(c1ncccc1F)O3)C2 (stereo not drawn) ? Thanks!
Response given: 113
